Measured CC50 values are reported for all entries that follow.
- System: Zluc cells (Huh-7-derived cell line)
- testName: Cytotoxicity evaluation, CellTiter-Blue Cell Viability Assay
- Format: cell-based
- conditionSet: read-out: HCV Replicon CC50
- Protocol: For cytotoxicity evaluation, Zluc cells were treated with compound as described herein, and cell viability was monitored using the CellTiter-Blue Cell Viability Assay (Promega) by adding 20 μL of the assay solution to each well. […] Fluorescence was detected in plates using excitation and emission wavelengths of 531 and 595 nm, respectively, in a Victor^3 V 1420 multilabel counter (Perkin Elmer) and CC50 values were determined using Microsoft Excel and XLfit 5.2 software.

- compound: "CC(C)OC(=O)[C@H](C)NP(=O)(OCCSC(=O)C(C)(C)C)OC[C@H]1O[C@@H](n2cnc3c(N)ncnc32)C(Cl)(Cl)[C@@H]1O (single isomer, unassigned) [117b (Diast. 2)]"
  CC50: "≤ 50 µM"
- compound: "CC(C)OC(=O)[C@H](C)N[P@](=O)(OCCSC(=O)C(C)(C)C)OC[C@H]1O[C@@H](n2ccc(N)nc2=O)C(Cl)(Cl)[C@@H]1O (single isomer, unassigned) [101b (Diast. 2)]"
  CC50: "> 50 µM"
- compound: "CC(C)OP1(=O)OC[C@H]2O[C@@H](n3ccc(N)nc3=O)C(Cl)(Cl)[C@@H]2O1 (single isomer, unassigned) [104 (Diast. 2)]"
  CC50: "> 50 µM"
- compound: "CC(C)OC(=O)[C@H](C)N[P@](=O)(OCCSC(=O)C(C)(C)C)OC[C@H]1O[C@@H](n2ccc(N)nc2=O)[C@@](F)(Cl)[C@@H]1O (single isomer, unassigned) [102b (Diast. 2)]"
  CC50: "> 50 µM"

###

- measurementTarget: wild-type HCV genotype 1b NS5B protein (HCV polymerase) (Hepatitis C virus genotype 1b, UniProt Q9WMX2)
- Construct: HCV genotype 1b NS5B protein were used to generate recombinant HCV polymerases (with a deletion of the 21 carboxy terminal amino acids)
- testName: HCV polymerase enzyme assay, wild-type
- Method: Test compounds in the form of nucleoside triphosphates were examined for inhibitory activity against purified HCV polymerase in a standard assay. […] The enzymatic activity assay measured the inhibitory effect of increasing concentrations of test compound on the incorporation of α-[^33P]-labeled nucleotide into trichloroacetic acid-precipitable material. […] The inhibitory activity of test compounds was determined by fitting results to dose-response curves using XLfit software.

- inputSmiles: "Nc1nc2c(ncn2[C@@H]2O[C@H](COP(=O)(O)OP(=O)(O)OP(=O)(O)O)[C@@H](O)[C@]2(F)Cl)c(=O)[nH]1"
  IC50: "< 250 nM"
- inputSmiles: "Nc1ccn([C@@H]2O[C@H](COP(=O)(O)OP(=O)(O)OP(=O)(O)O)[C@@H](O)C2(Cl)Cl)c(=O)n1"
  IC50: "< 250 nM"
- inputSmiles: "O=c1ccn([C@@H]2O[C@H](COP(=O)(O)OP(=O)(O)OP(=O)(O)O)[C@@H](O)C2(Cl)Cl)c(=O)[nH]1"
  IC50: "< 250 nM"
- inputSmiles: "Nc1ncnc2c1ncn2[C@@H]1O[C@H](COP(=O)(O)OP(=O)(O)OP(=O)(O)O)[C@@H](O)C1(Cl)Cl"
  IC50: "250 to 1000 nM"
- inputSmiles: "O=c1ccn([C@@H]2O[C@H](COP(=O)(O)OP(=O)(O)OP(=O)(O)O)[C@@H](O)[C@@]2(F)Cl)c(=O)[nH]1"
  IC50: "< 250 nM"
- inputSmiles: "O=c1ccn([C@@H]2O[C@H](COP(=O)(O)OP(=O)(O)OP(=O)(O)O)[C@@H](O)[C@]2(F)Cl)c(=O)[nH]1"
  IC50: "< 250 nM"
